B1: glmS ribozyme (parent)
chain: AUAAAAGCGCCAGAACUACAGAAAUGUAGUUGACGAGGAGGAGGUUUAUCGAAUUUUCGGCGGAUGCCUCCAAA

variants of: B1; experiment: self-cleavage kobs at 10000 uM GlcN6P; higher = faster cleavage; RNA array; conditions: with glucosamine-6-phosphate
This sample holds only a part of the variants without activity.
// label = Satisfied if self-cleavage kobs at 10000 uM GlcN6P is not less than 0.0003 s⁻¹, otherwise Not satisfied

Solved entries (count: 6):
- MUTATION ANNOTATION: "A33C U47G"
  CLASS NAME: "Not satisfied"
- MUTATION ANNOTATION: "U30A U55A"
  CLASS NAME: "Satisfied"
- MUTATION ANNOTATION: "G41A G63A"
  CLASS NAME: "Not satisfied"
- MUTATION ANNOTATION: "G29U U31G G32C C67A C68G"
  CLASS NAME: "Not satisfied"
- MUTATION ANNOTATION: "A6C A12C C58G"
  CLASS NAME: "Not satisfied"
- MUTATION ANNOTATION: "U30C G32C U47G C50G A53U A64G C68A C70A"
  CLASS NAME: "Satisfied"

Please check the record A14C G40A U47C and state if its self-cleavage kobs at 10000 uM GlcN6P is at or above 0.0003 s⁻¹.
Satisfied

Please check the record C16A G32A C70G and state if its self-cleavage kobs at 10000 uM GlcN6P is at or above 0.0003 s⁻¹.
Not satisfied

Please check the record G38U U56C U65A and state if its self-cleavage kobs at 10000 uM GlcN6P is at or above 0.0003 s⁻¹.
Not satisfied
